Listed below are compounds with IC50 for UniProt P00533, each taken from published literature.

Answered examples (3):
1. CN(C)C/C=C/C(=O)N1CC[C@@H](Nc2n[nH]c3nccc(Oc4cccc(Nc5ccncn5)c4)c23)C1
1000 to 10000 nM
2. COc1ccccc1C(=O)NCc1ccc(-c2nn(C3CC4CC4C3)c3ncnc(N)c23)cc1 (stereo not shown)
10 to 100 nM
3. COc1ccc(NC(=O)/C=C/CN(C)C)cc1Nc1ncc(Cl)c(Oc2ccc3ccccc3c2)n1
> 10000 nM

Proceeding to the next compound to report its IC50.
Readout IC50 for `CN(C)C/C=C/C(=O)N1CCOc2c1ccc1ncnc(Nc3ccc(Oc4cc(Cl)ccc4F)cc3)c21` , test system UniProt P00533, was ≤ 50 nM

---

pIC50: −log10 of the molar value.
Listed below are molecules with pIC50 for Epidermal growth factor receptor (Homo sapiens, UniProt P00533), each taken from published literature.

Answered examples (3):
1) C=CC(=O)Nc1cc(-c2c(-c3ccnc(N4CCOCC4)c3)[nH]c3nccc(Cl)c23)ccc1C
≥ 7.00
2) C[C@@H](Nc1ncnc2[nH]c(-c3ccc(CN4CCN(CCC(=O)NO)CC4)cc3)cc12)c1ccccc1
> 7.00
3) COCCN1CCC(Oc2ccc3c(c2)/C(=C(\c2cc(F)cc(F)c2)c2nc4ccccc4[nH]2)C(=O)N3)CC1
5.30 to 6.30

Readout pIC50 for `CC(C)c1cnc(NC(=O)c2ccc(-c3nn([C@@H]4CCN(C(=O)/C=C/CN(C)C5CC5)C4)c4ncnc(N)c34)cc2)s1` , test system Epidermal growth factor receptor (Homo sapiens, UniProt P00533), was 6.00 to 7.00

Readout pIC50 for `C=CC(=O)Nc1cccc(-n2cnc3cnc(Nc4ccc(N5CCN(C)CC5)c(F)c4)nc32)c1` , test system Epidermal growth factor receptor (Homo sapiens, UniProt P00533), was < 7.00

Readout pIC50 for `CC(=O)N1CC[C@@H](Nc2n[nH]c3nccc(Oc4cccc(C(=O)Nc5ccc(C(C)C)c(C)c5)c4)c23)C1` , test system Epidermal growth factor receptor (Homo sapiens, UniProt P00533), was 5.00 to 6.00

Readout pIC50 for `COCCOc1ccc(-n2c(=O)n(-c3ccc(C)c(OC)c3)c3c(N)ncnc32)cc1NC(=O)/C=C/CN(C)C` , test system Epidermal growth factor receptor (Homo sapiens, UniProt P00533), was 5.00 to 6.00

---

pIC50: −log10 of the molar value.
Listed below are molecules with pIC50 for Epidermal growth factor receptor (Homo sapiens), each taken from published literature.

Answered examples (3):
1. CC(C)c1nc(-c2cccc(NS(=O)(=O)c3ccc(C(C)(C)C)cc3)c2)c(-c2ccnc(Nc3ccc(N4CCOCC4)nc3)n2)s1
< 6.00
2. COCCOc1cc2ncnc(Nc3ccc(F)c(Cl)c3)c2cc1NC(=O)CCCCC(=O)NO
> 7.00
3. CC#CC(=O)N1CCC[C@@H](Nc2n[nH]c3nccc(Oc4ccc(C(=O)Nc5cc(C)n(C)n5)cc4)c23)C1
< 5.00

Readout pIC50 for `CN(C)C/C=C/C(=O)N1CCOc2c1ccc1ncnc(Nc3ccc(Oc4ccccc4)cc3)c21` , test system Epidermal growth factor receptor (Homo sapiens), was ≥ 7.30

Readout pIC50 for `C=CC(=O)Nc1cc(-c2c(-c3ccc(N4CCN(C)CC4)cc3)[nH]c3ncc(C(=O)NCc4ccncc4)cc23)ccc1C` , test system Epidermal growth factor receptor (Homo sapiens), was ≥ 7.00

Readout pIC50 for `C=CC(=O)Nc1cc(-c2c(-c3ccnc(N4CCN(C)CC4)c3)[nH]c3ncc(C(=O)OC(C)C)cc23)cc(F)c1C` , test system Epidermal growth factor receptor (Homo sapiens), was ≥ 7.00

Readout pIC50 for `C[C@@H](Nc1ncnc2[nH]c(-c3ccc(C(=O)NCCNCCCCCC(=O)NO)cc3)cc12)c1ccccc1` , test system Epidermal growth factor receptor (Homo sapiens), was > 7.00

Readout pIC50 for `CC(C)c1nc(-c2ccc(F)c(NS(=O)(=O)c3c(F)cccc3F)c2)c(-c2ccnc(Nc3cccc(CCS(N)(=O)=O)c3)n2)s1` , test system Epidermal growth factor receptor (Homo sapiens), was 6.00 to 7.00

---

Listed below are molecules with IC50 for Epidermal growth factor receptor (Homo sapiens), each taken from published literature.

Answered examples (2):
1. Cc1cc(Nc2ncnc3sc4c(c23)CCN(C(=O)/C=C/CN(C)C)C4)ccc1Oc1ccc2cn[nH]c2c1
1 to 10 µM
2. C=CC(=O)Nc1cc(Nc2ncc(C#N)c(-n3nc(C)c4ccccc43)n2)c(OC)cc1N(C)CCN(C)C
> 1 µM

// `COc1cc(N2CCC(N3CCN(C)CC3)CC2)ccc1Nc1ncc(Cl)c(Nc2cccc(-c3cccc(C=O)c3O)c2)n1` : IC50 value = 0.0875 µM

// `C=CC(=O)N[C@H]1CCCc2c(-c3cnc4ccccc4c3)c3c(N)ncnc3n2C1` : IC50 value = 0.49 µM

// `CC(C)c1nc(-c2ccc(F)c(NS(=O)(=O)c3c(F)cccc3F)c2)c(-c2ccnc(Nc3ccncc3)n2)s1` : IC50 value = > 1 µM

// `O=C1Nc2ccc(Br)cc2/C1=C/c1[nH]c2c(c1-c1ccccc1)C(=O)NCC2` : IC50 value = 6.01 µM

// `CC#CC(=O)NCCCC(=O)c1nc(-c2ccc(C(=O)Nc3ccccn3)cc2)c2c(N)nccn12` : IC50 value = > 10 µM

// `COc1ccccc1C(=O)NCc1ccc(-c2nn([C@H]3C=C[C@H](n4ccnn4)C3)c3ncnc(N)c23)cc1` : IC50 value = 1 to 10 µM

// `C=CC(=O)N1CCc2ccc(-c3c(-c4cccc(OCCN5CCCC5)c4)[nH]c4nccc(OCC)c34)cc21` : IC50 value = ≤ 0.1 µM

// `COc1cc(N(C)CCN(C)C)ccc1Nc1ncc(Cl)c(-c2cn(Cc3cccc(C=O)c3O)c3ccccc23)n1` : IC50 value = > 1 µM

// `CCOC(=O)N1CCC[C@@H](Nc2n[nH]c3nccc(Oc4ccc(C(=O)Nc5cc(C#N)ccn5)cc4)c23)C1` : IC50 value = 1 to 10 µM

// `C=CC(=O)Nc1cc(Nc2nccc(-c3cn(C)c4ccccc34)n2)c(OC)cc1N(C)C12CC(N(C)C)(C1)C2` : IC50 value = ≥ 0.1 µM

// `O=S(=O)(Nc1cccc(-c2nc(N3CCCCC3)sc2-c2ccnc(Nc3ccc(N4CCOCC4)c(F)c3)n2)c1)c1c(F)cccc1F` : IC50 value = > 1 µM

// `Cc1ccnc(NC(=O)c2ccc(Oc3ccnc4[nH]nc(N[C@@H]5CCN(C(=O)C6(C#N)CC6)C5)c34)cc2)c1` : IC50 value = > 10 µM

---

Listed below are molecules with pIC50 for Epidermal growth factor receptor (Homo sapiens), each taken from published literature.
pIC50: −log10 of the molar value.

Answered examples (2):
1) CN(C)C/C=C/C(=O)Nc1cccc(Nc2cc(Nc3ccc(F)c(Cl)c3)ncn2)n1
≥ 8.00
2) CCNC(=O)N1CCC[C@@H](Nc2n[nH]c3nccc(Oc4ccc(Oc5ccccc5)cc4C)c23)C1
5.00 to 6.00

Proceeding to the next molecule to report its pIC50.
Readout pIC50 for `C=CC(=O)Nc1cc(-c2c(-c3ccc(CN4CCN(C)CC4)cc3)[nH]c3ncc(C(=O)OC(C)C)cc23)ccc1C` , test system Epidermal growth factor receptor (Homo sapiens), was ≥ 7.00

---

Listed below are compounds with IC50 for Epidermal growth factor receptor (Homo sapiens), each taken from published literature.

Answered examples (3):
1. CN(C)C/C=C/C(=O)N1CCOc2c1ccc1ncnc(Nc3ccc(OCc4cccc(F)c4)c(Cl)c3)c21
≤ 50 nM
2. COCCN(C)C/C=C/C(=O)N1CCOc2c1ccc1ncnc(Nc3ccc(Oc4ccn5ncnc5c4)c(C)c3)c21
50 to 500 nM
3. Brc1cccc(Nc2ncnc3sc4ccccc4c23)c1
8.08 nM

Proceeding to the next compound to report its IC50.
// `C=CC(=O)Nc1cc(-c2c(-c3cccc(OCCN(C)C)c3)[nH]c3nccc(Cl)c23)ccc1C` : IC50 value = ≤ 100 nM

---

Listed below are molecules with IC50 for Epidermal growth factor receptor (Homo sapiens), each taken from published literature.

1. C[C@@H](Nc1ncnc2[nH]c(-c3ccc(C(=O)NO)cc3)cc12)c1ccccc1
< 100 nM
2. C=CC(=O)N1CCC[C@@H](Nc2n[nH]c3nccc(Oc4ccc(C(=O)Nc5nc6c(s5)CCN(C)C6)cc4)c23)C1
> 10000 nM
3. CN1CCN(c2ccc(Nc3nc(Nc4cccc5c4N(S(C)(=O)=O)CC5)c4cc[nH]c4n3)cc2F)CC1
150 nM
4. C[C@@H](Nc1ncnc2[nH]c(-c3ccc(CNCCCCCCC(=O)NO)cc3)cc12)c1ccccc1
< 100 nM
5. COc1cnn(-c2ccc(Nc3nc(Nc4cc(C)c(N5CCN(C6CCN(C)CC6)CC5)cc4OC)ncc3Br)c(P(C)(C)=O)c2)c1
31 nM
6. Cc1cc(Nc2ncnc3sc4c(c23)CCN(C(=O)/C=C/CN2CC3C(CO)C3C2)C4)ccc1Oc1ccc2ncnn2c1 (centres unmarked)
> 10000 nM

Readout IC50 for `CN(C)C/C=C/C(=O)N1CCOc2c1ccc1ncnc(Nc3ccc(OCc4cccc(F)c4)c(F)c3)c21` , test system Epidermal growth factor receptor (Homo sapiens), was ≤ 50 nM
